Recorded SpCas9 inhibition in reporter cells for the following compounds
biological target: SpCas9 (Streptococcus pyogenes serotype M1, UniProt Q99ZW2); experiment: Inhibition of SpCas9 nuclease activity in EGFP/iCas9/gRNA-EGFP reporter 293T cells (flow cytometry); type: cell-based; design: expressed in transfected cells; host or cells: H2AX-EGFP HEK293T cells, lentiviral transduction, doxycycline-induced; details: 10 μM, Dox 2 μg/mL, 72 h
Sequence (Q99ZW2 whole entry): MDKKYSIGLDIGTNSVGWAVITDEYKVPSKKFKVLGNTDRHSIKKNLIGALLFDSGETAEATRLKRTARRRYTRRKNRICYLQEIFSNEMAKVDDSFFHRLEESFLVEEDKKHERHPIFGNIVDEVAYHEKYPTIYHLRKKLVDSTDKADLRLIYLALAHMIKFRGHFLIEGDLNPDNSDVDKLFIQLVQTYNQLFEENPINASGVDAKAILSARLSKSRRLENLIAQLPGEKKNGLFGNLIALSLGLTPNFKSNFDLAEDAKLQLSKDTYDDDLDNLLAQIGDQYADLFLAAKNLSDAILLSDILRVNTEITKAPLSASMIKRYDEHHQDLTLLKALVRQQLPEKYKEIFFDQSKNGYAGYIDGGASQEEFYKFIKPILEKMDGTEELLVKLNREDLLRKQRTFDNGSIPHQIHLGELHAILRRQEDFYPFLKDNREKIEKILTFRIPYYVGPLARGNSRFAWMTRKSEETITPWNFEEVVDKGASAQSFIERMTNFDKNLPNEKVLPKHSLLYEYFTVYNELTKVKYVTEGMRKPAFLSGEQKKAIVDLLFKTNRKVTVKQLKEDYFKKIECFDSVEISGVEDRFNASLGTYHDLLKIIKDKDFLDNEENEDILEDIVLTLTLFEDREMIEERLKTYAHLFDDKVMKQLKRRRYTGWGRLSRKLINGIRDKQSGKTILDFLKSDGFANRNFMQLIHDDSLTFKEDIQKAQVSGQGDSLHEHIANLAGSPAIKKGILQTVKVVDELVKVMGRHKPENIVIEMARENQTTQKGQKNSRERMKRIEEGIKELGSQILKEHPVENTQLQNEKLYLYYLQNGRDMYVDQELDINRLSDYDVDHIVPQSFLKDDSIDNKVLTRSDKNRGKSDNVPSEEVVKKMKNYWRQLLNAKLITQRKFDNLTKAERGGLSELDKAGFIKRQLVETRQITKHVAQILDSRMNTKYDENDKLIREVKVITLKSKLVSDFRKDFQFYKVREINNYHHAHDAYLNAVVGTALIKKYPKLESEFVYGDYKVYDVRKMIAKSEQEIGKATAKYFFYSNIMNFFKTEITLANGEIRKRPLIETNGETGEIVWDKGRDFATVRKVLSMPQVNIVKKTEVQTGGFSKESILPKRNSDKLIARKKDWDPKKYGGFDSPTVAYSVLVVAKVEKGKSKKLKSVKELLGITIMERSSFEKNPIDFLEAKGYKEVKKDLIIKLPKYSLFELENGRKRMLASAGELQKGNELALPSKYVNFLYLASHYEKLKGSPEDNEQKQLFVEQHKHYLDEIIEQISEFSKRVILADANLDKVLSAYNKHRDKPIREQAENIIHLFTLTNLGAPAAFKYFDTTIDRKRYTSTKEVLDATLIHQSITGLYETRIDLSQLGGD
readoutLabel: SpCas9 inhibition in reporter cells (%)

Cc1ccc(C(=O)/C(C#N)=N\Nc2ccc([N+](=O)[O-])cc2)cc1
50
COc1ccc(C(=O)/C(C#N)=N/Nc2ccccc2[N+](=O)[O-])cc1
50
CC1(C)CC(=NNc2ccc([N+](=O)[O-])cc2[N+](=O)[O-])CC(C)(C)N1C(=O)COCC(=O)N1C(C)(C)CC(=NNc2ccc([N+](=O)[O-])cc2[N+](=O)[O-])CC1(C)C
50
